molecular target: Cytochrome P450 1A2 (Homo sapiens) (UniProt P05177); assay: Cytochrome panel assay with activity outcomes; settings: recombinant CYP, pro-luciferin dealkylation, luminescence, p450-cyp1a2; series mostly up to 57.1 µM
Sequence (P05177 whole entry, looked up): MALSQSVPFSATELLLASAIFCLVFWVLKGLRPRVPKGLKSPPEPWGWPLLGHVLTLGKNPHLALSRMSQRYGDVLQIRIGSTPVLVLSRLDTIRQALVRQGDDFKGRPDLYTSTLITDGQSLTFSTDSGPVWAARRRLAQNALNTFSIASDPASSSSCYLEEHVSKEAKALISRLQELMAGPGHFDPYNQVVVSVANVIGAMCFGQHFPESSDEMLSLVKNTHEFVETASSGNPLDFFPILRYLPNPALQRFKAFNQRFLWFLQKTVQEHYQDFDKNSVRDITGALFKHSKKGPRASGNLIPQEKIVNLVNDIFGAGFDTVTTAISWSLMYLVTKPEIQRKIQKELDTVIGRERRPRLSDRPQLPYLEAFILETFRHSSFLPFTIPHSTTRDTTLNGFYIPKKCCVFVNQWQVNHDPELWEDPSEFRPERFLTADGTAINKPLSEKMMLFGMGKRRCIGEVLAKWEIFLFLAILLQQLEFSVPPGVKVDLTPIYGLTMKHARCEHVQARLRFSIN
In all, about 16,000 compounds went through this assay and about 5,700 (36%) were called active. Another 24% or so got no clear call; they are omitted. Calls come from the whole dose curve; as a rule, active = well fitted curve in the direction sought with a large enough effect; inconclusive = small, poorly fitted or top-dose-only effect, or effect the other way; inactive = no such curve, though single readings can be large or run the other way. The list shows a part of the results.
Form entry, call: pick from TRUE for active, FALSE for inactive

CC1(C)CC(=O)c2cn3ncnc3nc2C1 ... FALSE
COc1ncc2nc(-c3cccs3)c(=O)n(CCc3ccccc3)c2n1 ... TRUE
CCOC(=O)c1oc2ccccc2c1NC(=O)c1ccc2c(c1)OCO2 ... TRUE
COCCn1c(=O)c(-c2cccs2)nc2cnc(OC)nc21 ... TRUE
CCCCN(C)S(=O)(=O)c1ccc(C(=O)Nc2nnc(CSC)o2)cc1 ... FALSE

// next entry
## Input # lookup: test call for C[C@@]1(C(NC(=O)c2cccs2)c2ccc(-c3ccccc3)cc2)C[C@H]1C1CCCCC1 (stereo partly specified)
## Output FALSE

###

target: Cytochrome P450 1A2 (Homo sapiens); experiment: Cytochrome panel assay with activity outcomes; details: recombinant CYP, pro-luciferin dealkylation, luminescence, p450-cyp1a2; series mostly up to 57.1 µM
The campaign covered roughly 16,000 compounds. About 5,700 (36%) were called active. Not shown: some 24% with an inconclusive outcome. Calls come from the whole dose curve; as a rule, active = well fitted curve in the direction sought with a large enough effect; inconclusive = small, poorly fitted or top-dose-only effect, or effect the other way; inactive = no such curve, though single readings can be large or run the other way. Some of the results follow.
Form entry, call: pick from active, inactive

Some entries whose results are on file:
COc1cccc(-c2cc(NCc3cccs3)ncn2)c1 ... active
O=C(CCn1c(=S)[nH]c2ccccc2c1=O)NCCCN1CCOCC1 ... inactive

## Input # lookup: test call for CN(C)Cc1ccccc1-c1nccc(Nc2ccc(F)cc2)n1
## Output active

## Input # lookup: test call for CCc1sc(N(C(=O)Cc2ccccc2)c2cccc(F)c2)nc1-c1ccc(C)cc1
## Output inactive

###

target: Cytochrome P450 1A2 (Homo sapiens); assay: Cytochrome panel assay with activity outcomes; conditions: recombinant CYP, pro-luciferin dealkylation, luminescence, p450-cyp1a2; series mostly up to 57.1 µM
Screen size: about 16,000 compounds; about 5,700 (36%) were called active. Roughly 24% stayed inconclusive and do not appear here. This is one part of the list.
endpoint label: outcome

O=C(NCc1ccccc1Cl)c1ccc2c(=O)n(CCCN3CCCC3=O)c(=S)[nH]c2c1 ... inactive
CO/N=C(\C(=O)N[C@@H]1C(=O)N2C(C(=O)[O-])=C(C[N+]3(C)CCCC3)CS[C@@H]12)c1csc(N)n1 ... inactive
O=C(NCCCN1CCCC1=O)c1ccc(CNS(=O)(=O)c2ccc(F)cc2)cc1 ... inactive

###

biological target: Cytochrome P450 1A2 (Homo sapiens) (UniProt P05177); assay: Cytochrome panel assay with activity outcomes; conditions: recombinant CYP, pro-luciferin dealkylation, luminescence, p450-cyp1a2; series mostly up to 57.1 µM
Screen size: about 16,000 compounds; about 5,700 (36%) were called active. About 24% were inconclusive and are not listed. The call rests on the fitted dose curve; in most records, active means well fitted curve in the direction sought with a large enough effect; inconclusive means small, poorly fitted or top-dose-only effect, or effect the other way; inactive means no such curve, though single readings can be large or run the other way. This is one part of the list.
Form entry, call: pick from active, inactive

c1ccc2cc(-c3csnn3)ccc2c1 ... active
N#Cc1cccc(NC(=O)N2CCC3(CC2)CCN(C(=O)c2ccco2)CC3)c1 ... inactive
Cc1nc(SCC(=O)Nc2ccc3c(c2)OCCO3)c2oc3ccccc3c2n1 ... active
CC(C)NC(=O)c1ccc(-c2cccc(C(F)(F)F)c2)o1 ... active
CCCc1nnc(NC(=O)CCC(=O)NCc2ccccc2OC)s1 ... inactive
COc1ccc(S(=O)(=O)N2CCCN(CC(=O)Nc3ccc(OC)c(Cl)c3)CC2)cc1 ... active

// next entry
## Input # lookup: test call for COCCn1c(=O)c(-c2cccs2)nc2cnc(Oc3ccc(OC)cc3)nc21
## Output active

###

biological target: Cytochrome P450 1A2 (Homo sapiens); assay: Cytochrome panel assay with activity outcomes; conditions: recombinant CYP, pro-luciferin dealkylation, luminescence, p450-cyp1a2; series mostly up to 57.1 µM
Screen size: about 16,000 compounds; about 5,700 (36%) were called active. Not shown: some 24% with an inconclusive outcome. Calls follow the shape of the dose curve; as a rule, active = well fitted curve in the direction sought with a large enough effect; inconclusive = small, poorly fitted or top-dose-only effect, or effect the other way; inactive = no such curve, though single readings can be large or run the other way. The list shows a part of the results.
Form entry, call: pick from yes (1) = active, no (0) = inactive

Some entries whose results are on file:
CCCCN(CC)C(=O)Cc1ccccc1OC ... yes (1)
CC(=O)C[C@H](c1ccc([N+](=O)[O-])cc1)c1c(O)c2ccccc2oc1=O ... no (0)
CN(C)C(=O)c1ccc(-c2ccc3ncnc(NCc4cccs4)c3c2)cc1 ... yes (1)

// next entry
## Input # lookup: test call for CN(C)C(=O)c1ccc(-c2ccc3ncnc(NCc4ccccc4)c3c2)cc1
## Output yes (1)

###

molecular target: Cytochrome P450 1A2 (Homo sapiens); experiment: Cytochrome panel assay with activity outcomes; conditions: recombinant CYP, pro-luciferin dealkylation, luminescence, p450-cyp1a2; series mostly up to 57.1 µM
Out of some 16,000 compounds screened, about 5,700 (36%) were called active. Another 24% or so got no clear call; they are omitted. Calls come from the whole dose curve; as a rule, active = well fitted curve in the direction sought with a large enough effect; inconclusive = small, poorly fitted or top-dose-only effect, or effect the other way; inactive = no such curve, though single readings can be large or run the other way. The list shows a part of the results.
Form entry, call: pick from active, inactive

Some entries whose results are on file:
COc1cc(C(=O)NC(=S)Nc2ccc(Cl)c(C(=O)O)c2)cc(OC)c1OC ... inactive
COC(=O)CSc1ccc(C#N)c(SCC(=O)OC)c1 ... active
CC(=O)N1c2ccc(S(=O)(=O)CCC(=O)O)cc2CC1C (stereo unspecified) ... inactive
COc1ccc2[nH]c(=O)c(NC(N)=S)nc2c1 ... active
Cc1ccc2[nH]c(=O)c(NC(N)=S)nc2c1 ... active

## Input # lookup: test call for CCCC[C@H]1C[C@@H]1[C@@H]1N(P(=O)(c2ccccc2)c2ccccc2)C[C@@](O)(c2ccccc2)CC12CC2
## Output inactive

## Input # lookup: test call for C=CCn1c(=O)c2c(nc(-c3ccc(S(=O)(=O)O)cc3)n2C)n(C)c1=O
## Output inactive

## Input # lookup: test call for NC(N)=N/N=C(/c1ccccc1)c1ccc(O)cc1O
## Output active

###

target: Cytochrome P450 1A2 (Homo sapiens) (UniProt P05177); assay: Cytochrome panel assay with activity outcomes; conditions: recombinant CYP, pro-luciferin dealkylation, luminescence, p450-cyp1a2; series mostly up to 57.1 µM
Out of some 16,000 compounds screened, about 5,700 (36%) were called active. Roughly 24% stayed inconclusive and do not appear here. The list shows a part of the results.
endpoint label: AC50

COc1ccc(-n2ccnc2SCC(=O)Nc2ccccc2)cc1 ... 12.6 µM (active)
Cc1ccc(O)c(C(=O)c2cc(C#N)c(=O)n(-c3c(C)n(C)n(-c4ccccc4)c3=O)c2)c1 ... inactive
C[C@H](CCC(=O)NCC(=O)O)[C@H]1CC[C@H]2[C@H]3[C@@H](C[C@@H](O)[C@]12C)[C@]1(C)CC[C@H](O)C[C@@H]1C[C@@H]3O ... inactive
CCC(CC)c1nnc(NC(=O)COc2ccc3c(C)cc(=O)oc3c2)s1 ... inactive
Cc1ccc(Oc2nc(-c3ccccc3)ncc2S(C)(=O)=O)cc1 ... 2.82 µM (active)
O=c1[nH][nH]c(C(F)(F)F)c1C=Nc1cccc(Cl)c1 ... 12.6 µM (active)

Kindly note: Cytochrome P450 1A2 (Homo sapiens) (UniProt P05177), CC1CCN(CCOc2cc(Cl)ccc2Cl)CC1 , AC50 value reported: 8.91 µM (active)

Kindly note: Cytochrome P450 1A2 (Homo sapiens) (UniProt P05177), C=C(C)[C@H]1CC=C(C)/C(=N/NC(=O)CNc2ccccc2OC)C1 , AC50 value reported: 15.8 µM (active)

Kindly note: Cytochrome P450 1A2 (Homo sapiens) (UniProt P05177), CCCOC(=O)c1ccc(NC(=O)c2cn(CC)c3nc(C)ccc3c2=O)cc1 , AC50 value reported: inactive

Kindly note: Cytochrome P450 1A2 (Homo sapiens) (UniProt P05177), CC(=O)c1cc(CC=C(C)C)c(O)cc1O , AC50 value reported: 3.55 µM (active)

Kindly note: Cytochrome P450 1A2 (Homo sapiens) (UniProt P05177), CC1=NN(C(=O)c2ccncc2)C(=O)[C@@H]1N=Nc1ccc2ccccc2c1 , AC50 value reported: 0.158 µM (active)

Kindly note: Cytochrome P450 1A2 (Homo sapiens) (UniProt P05177), Cc1cc(C)cc(N(C(=O)Cc2cccs2)C(C(=O)NC2CCCCC2)c2ccccn2)c1 (stereo not drawn) , AC50 value reported: inactive

###

molecular target: Cytochrome P450 1A2 (Homo sapiens); test: Cytochrome panel assay with activity outcomes; conditions: recombinant CYP, pro-luciferin dealkylation, luminescence, p450-cyp1a2; series mostly up to 57.1 µM
In all, about 16,000 compounds went through this assay and about 5,700 (36%) were called active. Roughly 24% stayed inconclusive and do not appear here. The list shows a part of the results.
endpoint label: AC50

// below: answered compounds
O=C(Cc1cccs1)N/N=C/C(Br)=C/c1ccccc1 ... 5.01 µM (active)
COc1ccc(CNc2ncncc2-c2cccc(NS(C)(=O)=O)c2)c(OC)c1 ... 15.8 µM (active)
COc1ccccc1-c1nc(Nc2ccncc2)c2ccccc2n1 ... 0.316 µM (active)
CCSc1nc2ccccc2n1C(=O)/C=C\c1ccc(OC)c(OC)c1 ... 6.31 µM (active)
COc1ccccc1-c1nccc(NCc2cccnc2)n1 ... 0.2 µM (active)
C=CCNC(=S)Nc1ccc2nc(C)c(C)nc2c1 ... 4.47 µM (active)

Now for another entry.
For CNc1ccnc(-c2ccccc2OC)n1 the compound record lists AC50 as 5.01 µM (active)
